experiment: Quantitative highthroughput screen to assess conditional lethalithy of SEM cells grown in RPMI1640 with dialyzed fetal bovine serum (RPMI+ds) (AID 1963884); conditions: SEM B-ALL cells, RPMI+dialyzed FBS, CellTiter-Glo viability, 48 h; series mostly up to 45.8 µM; also: nearly all actives have a fitted effect of over 35% in size
Inconclusive results are not listed. Calls of active or inactive are those of the source. Calls follow the shape of the dose curve; as a rule, active = well fitted cell-killing curve with a large enough effect; inconclusive = small, poorly fitted or top-dose-only effect, or effect the other way; inactive = no such curve, though single readings can be large or run the other way.
Field 'call' accepts active, inactive

For COc1cc(NS(=O)(=O)c2ccc(N)cc2)nc(OC)n1 , which call appears in the assay record? inactive

For CC=CC1=C(C(=O)O)N2C(=O)[C@H](NC(=O)[C@H](N)c3ccc(O)cc3)[C@@H]2SC1 , which call appears in the assay record? inactive

For COc1ccc(-n2nc(C(N)=O)c3c2C(=O)N(c2ccc(N4CCCCC4=O)cc2)CC3)cc1 , which call appears in the assay record? inactive

For Cc1cccc(-c2[nH]c(C(C)(C)C)nc2-c2ccc3c(c2)OCO3)n1 , which call appears in the assay record? active

For COC(=O)[C@]12CCC(C)(C)C[C@@H]1[C@@H]1C(=O)C=C3[C@@]4(C)C=C(C#N)C(=O)C(C)(C)[C@@H]4CC[C@@]3(C)[C@]1(C)CC2 , which call appears in the assay record? active

For Oc1c(Cl)cc(Cl)c2cccnc12 , which call appears in the assay record? active

---

Experiment: Viability qHTS for spleen associated tyrosine kinase inhibitor (SYKi) drug resistant MV4-11 cells (AID 1963824); also: nearly all actives have a fitted effect of over 35% in size
Conditions: SYKi-resistant MV4-11 viability, CellTiter-Glo, 72 h; series mostly up to 45 µM
Protocol: Department of Medicine, Hematology/Oncology University Hospital Frankfurt, Germany. Trials have shown promising clinical activity of the selective SYK inhibitor entospletinib in patients with high expressing HOXA9/MEIS1 acute leukemias. […] 7; Detection; Luminescence; ViewLux plate reader (PerkinElmer). […] 1. Quantitative high-throughput screening (qHTS) of small molecule compounds was conducted on drug resistant SYKi MV4-11 cell line. […] 7. Luminescence was measured on a ViewLux plate reader (PerkinElmer).
Records with an inconclusive call do not appear. Calls of active or inactive are those of the source. Calls follow the shape of the dose curve; as a rule, active = well fitted cell-killing curve with a large enough effect; inconclusive = small, poorly fitted or top-dose-only effect, or effect the other way; inactive = no such curve, though single readings can be large or run the other way.
Field 'call' accepts active, inactive

For C=C1C(O)C(O)C2(CC3C(C)=CCC4C(C)(C(=O)O)CCCC34C)OC2C1O (configuration not stated) , which call appears in the assay record? inactive

For CC(O)C(O)/C=C/C=C/C(=O)O[C@@H]1C=C(C(=O)O)[C@](O)(CO)[C@@]2(C)CCCC(C)(C)[C@H]12 (some centres not stated) , which call appears in the assay record? inactive

For O=C(/C=C/c1ccc(O)cc1)O[C@H]1[C@@H]2C=CO[C@@H](O[C@@H]3O[C@H](CO)[C@@H](O)[C@H](O)[C@H]3O)[C@@H]2[C@@]2(CO)O[C@@H]12 , which call appears in the assay record? inactive

For O=C(O[C@@H]1O[C@H](CO)[C@@H](O)[C@H](O)[C@H]1O)c1c(O)cc(O)cc1/C=C/c1ccccc1 , which call appears in the assay record? inactive

For O=C(/C=C/c1ccc(O)c(O)c1)O[C@H]1[C@@H]2C=CO[C@@H](O[C@@H]3O[C@H](CO)[C@@H](O)[C@H](O)[C@H]3O)[C@@H]2[C@@]2(CO)O[C@@H]12 , which call appears in the assay record? inactive

For O=C(CO)N1CCC(c2[nH]nc(-c3ccc(Cl)cc3)c2-c2ccncn2)CC1 , which call appears in the assay record? active

For CNC1CN(c2ccc3c(=O)c(C(=O)O)cn(-c4nccs4)c3n2)CC1OC (configuration not stated) , which call appears in the assay record? active

For CCOC(=O)n1ccn(C)c1=S , which call appears in the assay record? inactive

For OC1COC(OCC2OC(OCCc3ccccc3)C(O)C(O)C2O)C(O)C1O (configuration not stated) , which call appears in the assay record? inactive

For CC(C)NC(=O)C1CCC(n2c(NC(=O)c3ccc(F)cc3)nc3ccc(CN4CCC(C(C)(C)O)CC4)cc32)CC1 (configuration not stated) , which call appears in the assay record? active

For CCOc1ccc(C(=O)OCCN(CC)CC)cc1 , which call appears in the assay record? inactive

For C=C1CCC2C(C(C)(C)O)CCC2(C)CC(O)C(=C)CCC1O (configuration not stated) , which call appears in the assay record? active

For OC[C@H]1O[C@@H](OC/C=C/c2ccc(O)cc2)[C@H](O)[C@@H](O)[C@@H]1O , which call appears in the assay record? inactive

For CCC(C)C(=O)O[C@@H]1[C@@H](O)[C@@H](O[C@H]2O[C@H](CO)[C@@H](O)[C@H](O)[C@H]2O)O[C@H](CO)[C@H]1O (some centres not stated) , which call appears in the assay record? inactive

For CCCCC(CC)CN=C(N)NC(N)=NCCCCCCN=C(N)NC(N)=NCC(CC)CCCC (configuration not stated) , which call appears in the assay record? active

For C/C(=N\NC(=S)N1CCC1)c1ccccn1 , which call appears in the assay record? active

For NC(=O)c1ccc(-c2nc(-c3ccc4c(c3)OCO4)c(-c3ccccn3)[nH]2)cc1 , which call appears in the assay record? active

For Cc1ccc([C@@H]2O[C@H](CO)[C@@H](O)[C@H](O)[C@H]2O)cc1Cc1ccc(-c2ccc(F)cc2)s1 , which call appears in the assay record? active

For O=S(=O)(O)CCSSCCS(=O)(=O)O , which call appears in the assay record? inactive

For OC[C@@]1(O)CO[C@H](OC[C@H]2O[C@@H](OC(CCCCc3ccc(O)cc3)CCc3ccc(O)cc3)[C@H](O[C@H]3OC[C@](O)(CO)[C@H]3O)[C@@H](O)[C@@H]2O)[C@@H]1O (some centres not stated) , which call appears in the assay record? inactive

For CC1COc2c(N3CCN(C)CC3)c(F)cc3c(=O)c(C(=O)O)cn1c23 (configuration not stated) , which call appears in the assay record? active

For O=C1c2ccccc2-c2c(NCCc3ccccc3)c(=O)[nH]c3cccc1c23 , which call appears in the assay record? active
